Test system: A549
Assay: NCI tumour cell line growth inhibition, 48 h
Calls of active or inactive are those of the source. Cut-off read from the data, not from the text of the source: active = GI50 up to about 1.1 µM and inactive = higher.
Let's look at some compounds and their measured GI50.
Metric Name: GI50

[[record]]
compound = "CCN(CC)CCN1C(=O)c2c(c(-c3ccccc3)c3ccccc3c2-c2ccccc2)C1=O"
metric_name = "GI50"
recorded_result = "> 100 µM (inactive)"

[[record]]
compound = "O=C1/C(=C\\c2cccc(Oc3ccccc3)c2)S(=O)(=O)C(c2ccccc2)N1Cc1ccccc1 (centres undefined)"
metric_name = "GI50"
recorded_result = "49.2 µM (inactive)"

[[record]]
compound = "Clc1ccc(OCc2nnc(CCCCCCCCc3nnc(COc4ccc(Cl)cc4Cl)n3Nc3ccccc3)n2Nc2ccccc2)c(Cl)c1"
metric_name = "GI50"
recorded_result = "8.77 µM (inactive)"

[[record]]
compound = "COc1ccc(/C=C2\\C[C@H]3[C@@H]4CC=C5C[C@@H](O)CC[C@]5(C)[C@H]4CC[C@]3(C)\\C2=N\\O)cc1"
metric_name = "GI50"
recorded_result = "7.98 µM (inactive)"

[[record]]
compound = "Cc1c(O)c(OC2OC(CO)C(O)C(O)C2O)cc2c1C=C[C@@H]1[C@@]2(C)C(=O)C[C@]2(C)[C@@H]([C@@](C)(O)C(O)/C=C/C(C)(C)O)[C@H](O)C[C@@]12C (some centres undefined)"
metric_name = "GI50"
recorded_result = "> 100 µM (inactive)"

[[record]]
compound = "O=[N+]([O-])c1ccc2nc3ccc([N+](=O)[O-])cn3c2c1"
metric_name = "GI50"
recorded_result = "39.1 µM (inactive)"

[[record]]
compound = "N#CC1=C(S)N(C2OC(CO)C(O)C(O)C2O)C(c2ccccc2)=CC1c1cccs1 (centres undefined)"
metric_name = "GI50"
recorded_result = "20 µM (inactive)"

[[record]]
compound = "O=C1N(c2ccccc2)C(=O)C2(SC=NN2Cc2ccccc2)N1c1ccccc1 (centres undefined)"
metric_name = "GI50"
recorded_result = "> 100 µM (inactive)"

[[record]]
compound = "O=S1(=O)c2cnccc2N=C(NCc2ccccc2)N1c1ccccc1"
metric_name = "GI50"
recorded_result = "> 100 µM (inactive)"

[[record]]
compound = "Cn1cnnc1SC(F)(F)c1nc2ccccc2o1"
metric_name = "GI50"
recorded_result = "> 100 µM (inactive)"

[[record]]
compound = "C=C(C(=O)OC)c1cc2ccccc2n1S(=O)(=O)c1ccccc1"
metric_name = "GI50"
recorded_result = "3.05 µM (inactive)"

[[record]]
compound = "CC(C)[Si](OC1=C(C(=O)Nc2ccccc2Cl)CCCCC1)(C(C)C)C(C)C"
metric_name = "GI50"
recorded_result = "> 100 µM (inactive)"

[[record]]
compound = "COc1ccc2nc3cc(Cl)ccc3c(NCCC[N+](C)(C)CCCCCCCCCCCCCCCC[N+](C)(C)CCCNc3c4ccc(Cl)cc4nc4ccc(OC)cc34)c2c1"
metric_name = "GI50"
recorded_result = "3.12 µM (inactive)"

[[record]]
compound = "COC1C=CC(O)C(CO)O1 (centres undefined)"
metric_name = "GI50"
recorded_result = "> 100 µM (inactive)"


----------
System: SF-268
Experiment: NCI tumour cell line growth inhibition, 48 h
Activity calls are given as the source filed them. Rule as the data show it: active = GI50 up to about 1.1 µM and inactive = higher.
Metric Name: GI50

[[record]]
compound = "COC(=O)C1=C(O)C(C(=O)OC)[C@]2(O)[C@@H](C(=O)OC)[C@H]1C[C@@H](c1ccccc1)[C@@H]2C(=O)OC (stereo not given in full)"
recorded_result = "1.96 µM (inactive)"

[[record]]
compound = "COC(=O)C1CCC(=O)N1/C(C)=N/NC(=O)Nc1ccc(Cl)c(Cl)c1 (stereo not given)"
recorded_result = "69.5 µM (inactive)"

[[record]]
compound = "CC12OOC(c3ccccc31)c1c2ccc2ccccc12 (stereo not given)"
recorded_result = "11.2 µM (inactive)"

[[record]]
compound = "COC(=O)c1ccccc1/C=C1\\Cc2cc(C)c(C)cc2C1=O"
recorded_result = "40.3 µM (inactive)"

[[record]]
compound = "CCCc1ccc(OCC(=O)N/N=C/c2c(-c3ccccc3)[nH]c3ccccc23)cc1"
recorded_result = "27.7 µM (inactive)"


----------
System: 786-0
Test: NCI tumour cell line growth inhibition, 48 h
Active and inactive are the calls of the source. No stated cut-off is given here; in the data, active = GI50 up to about 1.1 µM and inactive = higher.
Labels: YES (active), NO (inactive)

[[record]]
smiles_text = "COc1ccc2[nH]c3c(C)c4ccnc(NCCCN(C)CCCNC(=O)NCCCN(C)CCCNc5nccc6c(C)c7[nH]c8ccc(OC)cc8c7c(C)c56)c4c(C)c3c2c1"
target_entity = "786-0"
assigned_category = "YES"

[[record]]
smiles_text = "COc1cc(Nc2nc3cc(C)ccc3nc2-c2ccccc2)cc(OC)c1OC"
target_entity = "786-0"
assigned_category = "NO"

[[record]]
smiles_text = "C/C(CC(=O)Nc1cccc(C)c1C)=N\\NC(N)=S"
target_entity = "786-0"
assigned_category = "NO"


----------
Test system: NCI-H23
Experiment: NCI tumour cell line growth inhibition, 48 h
Active and inactive are the calls of the source. No stated cut-off is given here; in the data, active = GI50 up to about 1.1 µM and inactive = higher.
Metric Name: GI50

[[record]]
compound = "Nc1ncnc2c1nc(Cl)n2C1OC(CO)C(O)C1O (configuration not stated)"
target_entity = "NCI-H23"
metric_name = "GI50"
recorded_result = "1.95 µM (inactive)"

[[record]]
compound = "C[C@H](CCC(=O)NCCS(=O)(=O)O)[C@H]1CC[C@H]2[C@@H]3CC[C@@H]4C[C@H](O)CC[C@]4(C)[C@H]3CC[C@]12C"
target_entity = "NCI-H23"
metric_name = "GI50"
recorded_result = "> 100 µM (inactive)"

[[record]]
compound = "Cc1ccc(/C=N/NC2=NCCN2)s1"
target_entity = "NCI-H23"
metric_name = "GI50"
recorded_result = "> 100 µM (inactive)"

[[record]]
compound = "CSc1nc(-c2cc3c(c(SC)n2)CCC3)cc2c1CCC2"
target_entity = "NCI-H23"
metric_name = "GI50"
recorded_result = "> 100 µM (inactive)"

[[record]]
compound = "CC(C)(C)NCC(O)COc1cccc2[nH]c(C#N)cc12 (configuration not stated)"
target_entity = "NCI-H23"
metric_name = "GI50"
recorded_result = "> 100 µM (inactive)"

[[record]]
compound = "O=C(CSc1ncccn1)N/N=C/c1ccccc1OCc1ccccc1"
target_entity = "NCI-H23"
metric_name = "GI50"
recorded_result = "32.3 µM (inactive)"

[[record]]
compound = "CCCCOP(C)(=O)C(NC(=O)OCC)(C(F)(F)F)C(F)(F)F (configuration not stated)"
target_entity = "NCI-H23"
metric_name = "GI50"
recorded_result = "> 100 µM (inactive)"


----------
System: UO-31
Assay: NCI tumour cell line growth inhibition, 48 h
Active and inactive are the calls of the source. Rule as the data show it: active = GI50 up to about 1.1 µM and inactive = higher.
Metric Name: GI50

[[record]]
compound = "Cc1nn(C)c2nc3ccc(Cl)cc3c(-c3ccccc3)c12"
recorded_result = "> 100 µM (inactive)"

[[record]]
compound = "CN1/C(=C/C=C/C=C/C=C2C(=O)c3ccccc3C2=O)C(C)(C)c2ccccc21"
recorded_result = "37.2 µM (inactive)"

[[record]]
compound = "Cc1c(Cc2ccccc2)n(C(C)OCCN(OC(=O)Oc2ccccc2)C(=O)Oc2ccccc2)c(=O)[nH]c1=O (stereo unspecified)"
recorded_result = "14.5 µM (inactive)"

[[record]]
compound = "CN(C)c1c(C2CC(O)C(CO)O2)c(=O)c1=O (stereo unspecified)"
recorded_result = "> 100 µM (inactive)"

[[record]]
compound = "Cc1ccccc1NC(=O)O/N=C(\\Cl)C(C)C"
recorded_result = "17.4 µM (inactive)"

[[record]]
compound = "CC1=NN=C(C)C1/N=N/c1ccc2[nH]c(C)nc2c1"
recorded_result = "19.2 µM (inactive)"


----------
Test system: NCI-H460
Assay: NCI tumour cell line growth inhibition, 48 h
Active and inactive are the calls of the source. Rule as the data show it: active = GI50 up to about 1.1 µM and inactive = higher. Where a SMILES comes first, the peptide text is derived from it. The star is where a group is joined. Boc = CC(C)(C)OC(=O)*
GI50 listing for selected compounds.
Metric Name: GI50

[[record]]
compound = "C[C@H](N)C(=O)Nc1ccc(-c2nc3ccccc3s2)cc1"
recorded_result = "16.9 µM (inactive)"

[[record]]
compound = "Cn1cnc([N+](=O)[O-])c1Sc1nc2cccnc2[nH]1"
recorded_result = "> 100 µM (inactive)"

[[record]]
compound = "N=C(N)NCCCC(Nc1c2ccccc2nc2ccccc12)C(=O)O (configuration not stated)"
recorded_result = "> 100 µM (inactive)"

[[record]]
compound = "Cc1nc(C)c(C(=O)NNC(N)=S)cc1C(=O)NNC(N)=S"
recorded_result = "> 100 µM (inactive)"

[[record]]
compound = "CCSC1(SCC)CCN(/C=N/C(C)(C)C)C1"
recorded_result = "> 100 µM (inactive)"

[[record]]
compound = "COc1ccc(C2SC(=N)Nc3c2c(C)nn3C(=O)c2ccc(Cl)cc2)cc1 (configuration not stated)"
recorded_result = "> 10 µM (inactive)"

[[record]]
compound = "COc1ccc(-c2cc(=O)c3c(OC)cccc3o2)c(OC)c1OC"
recorded_result = "> 100 µM (inactive)"

[[record]]
compound = "COCN1C(N)=C(C(=O)OC(C)(C)C)C2=CC(=O)C=CC21C (configuration not stated)"
recorded_result = "18.4 µM (inactive)"

[[record]]
compound = "Cc1c(C)c(S(=O)(=O)N(CCCCCCN)OCCCN)c(C)c2c1OC(C)(C)CC2"
recorded_result = "2.69 µM (inactive)"

[[record]]
compound = "NC(=O)C12CC3CC(CC(Br)(C3)C1)C2"
recorded_result = "> 100 µM (inactive)"

[[record]]
compound = "O=C(/C=C/c1ccc(Cl)cc1)c1nc2ccccc2[nH]1"
recorded_result = "53 µM (inactive)"

[[record]]
compound = "O=C1CSC(=O)/C1=C\\NNc1nc2ccccc2o1"
recorded_result = "23.8 µM (inactive)"

[[record]]
compound = "CNC(=O)C1CCCN1C(=O)C(Cc1c[nH]cn1)NC(=O)C1CCC(=O)N1 (configuration not stated)"
recorded_result = "> 100 µM (inactive)"

[[record]]
compound = "COC(=O)CNC(=O)C(Cc1ccccc1)NC(=O)C(CCSC)NC(=O)C(Cc1ccc(O)cc1)NC(=O)OC(C)(C)C (configuration not stated) (Boc-YMFG-OMe; configuration not given here)"
recorded_result = "> 100 µM (inactive)"

[[record]]
compound = "NN/C(=N\\S(=O)(=O)c1cc2ccccc2s1)Nc1ccc(Cl)cc1"
recorded_result = "18.5 µM (inactive)"

[[record]]
compound = "CCCCCCSc1nc(COC(=O)NC)c(COC(=O)NC)n1C"
recorded_result = "> 100 µM (inactive)"

[[record]]
compound = "N=C(N)C1CN(CCc2c[nH]cn2)C(=O)NC1=O (configuration not stated)"
recorded_result = "> 100 µM (inactive)"

[[record]]
compound = "c1ccc(-c2sc(-c3cccs3)cc2Cc2cccs2)cc1"
recorded_result = "> 10 µM (inactive)"

[[record]]
compound = "CN1CCN(c2ccc3nc(-c4cc(O)c5c(nc(CO)n5C)c4O)[nH]c3n2)CC1"
recorded_result = "55.6 µM (inactive)"

[[record]]
compound = "COc1ccc([C@H]2CC(=O)N3CCCC3N2)cc1 (some centres not stated)"
recorded_result = "> 100 µM (inactive)"

[[record]]
compound = "O=C(NC/C(Cl)=C/Cl)Nc1c2ccccc2nc2ccccc12"
recorded_result = "60.3 µM (inactive)"

[[record]]
compound = "CC(=O)[C@H]1[C@H](O)C[C@@]2(C)[C@@H]3CCc4cc(O)c(OC5OC(CO)C(O)C(O)C5O)cc4C3(C)C(=O)C[C@]12C (some centres not stated)"
recorded_result = "> 100 µM (inactive)"

